Assay target: T1, Len(1-22) monomer peptide (Homo sapiens (Human), UniProt P06312 21-42)
T1 construct: Analyte in SPR; on beads in the pulldown assay; also called Vκ4(LEN(1-22) beads)
T1 peptide: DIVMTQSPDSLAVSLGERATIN
Assay info: SPR, antibody as ligand, peptide as analyte
Checkbox rule: koff lower than 0.0007 s⁻¹ = rule met; koff not lower than 0.0007 s⁻¹ = rule not met.

Query: Is the reported koff for VH9-M64I + VL4 (antibody, V domains shown, Humanized 11-1F4 variant) VH: QVQLQESGPGLVKPSETLSLTCTVSGFSLSSYGVSWIRQPPGKGLEWLGVIWGDGSTNYHPNLISRVTISVDTSKSQVLFKLSSVTAADTAVYYCATLDYWGQGTSVTVSS VL: DVVMTQSPLSLPVTLGQPASISCRSSQSLVHRNGNTYLHWFQQRPGQSPRLLIYKVSNRFSGVPDRFSGSGSGTDFTLKISRVEAEDVGVYFCFQTTYVPNTFGGGTKLEIK strictly below 0.0007 s⁻¹?
Result: rule not met

Query: For this binder, is koff lower than 0.0007 s⁻¹? VH9 + VL4-N33H (antibody, V domains shown, Humanized 11-1F4 variant) VH: QVQLQESGPGLVKPSETLSLTCTVSGFSLSSYGVSWIRQPPGKGLEWLGVIWGDGSTNYHPNLMSRVTISVDTSKSQVLFKLSSVTAADTAVYYCATLDYWGQGTSVTVSS VL: DVVMTQSPLSLPVTLGQPASISCRSSQSLVHRHGNTYLHWFQQRPGQSPRLLIYKVSNRFSGVPDRFSGSGSGTDFTLKISRVEAEDVGVYFCFQTTYVPNTFGGGTKLEIK
Result: rule not met

Query: Given the entry VH9-D54E + VL4 (antibody, V domains shown, Humanized 11-1F4 variant) VH: QVQLQESGPGLVKPSETLSLTCTVSGFSLSSYGVSWIRQPPGKGLEWLGVIWGEGSTNYHPNLMSRVTISVDTSKSQVLFKLSSVTAADTAVYYCATLDYWGQGTSVTVSS VL: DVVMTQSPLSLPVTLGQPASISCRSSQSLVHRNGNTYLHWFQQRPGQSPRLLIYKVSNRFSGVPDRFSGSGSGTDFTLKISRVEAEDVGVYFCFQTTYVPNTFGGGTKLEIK , would its reported koff be below 0.0007 s⁻¹?
Result: rule not met

Query: In the record for VH9-G55A + VL4 (antibody, V domains shown, Humanized 11-1F4 variant) VH: QVQLQESGPGLVKPSETLSLTCTVSGFSLSSYGVSWIRQPPGKGLEWLGVIWGDASTNYHPNLMSRVTISVDTSKSQVLFKLSSVTAADTAVYYCATLDYWGQGTSVTVSS VL: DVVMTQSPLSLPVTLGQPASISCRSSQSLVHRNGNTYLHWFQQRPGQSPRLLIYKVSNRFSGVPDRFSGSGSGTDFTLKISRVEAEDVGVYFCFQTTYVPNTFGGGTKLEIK , is koff less than 0.0007 s⁻¹?
Result: rule met

Query: Here's an entry: VH9 + VL4-N33S (antibody, V domains shown, Humanized 11-1F4 variant) VH: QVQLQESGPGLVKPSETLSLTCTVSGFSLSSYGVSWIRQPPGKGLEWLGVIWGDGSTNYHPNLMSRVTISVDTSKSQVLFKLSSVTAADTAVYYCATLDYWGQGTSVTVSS VL: DVVMTQSPLSLPVTLGQPASISCRSSQSLVHRSGNTYLHWFQQRPGQSPRLLIYKVSNRFSGVPDRFSGSGSGTDFTLKISRVEAEDVGVYFCFQTTYVPNTFGGGTKLEIK . Is its koff below 0.0007 s⁻¹?
Result: rule not met
